- System: E. coli MG1655
- Type: cell-based
Measure Name: suitability as phosphorus source (growth, purple color)

[
  {
    "Compound": "C=C(OP(=O)(O)O)C(=O)O [phosphoenol pyruvate]",
    "Experimental Result": "positive"
  },
  {
    "Compound": "Nc1nc2c(ncn2[C@@H]2O[C@H](COP(=O)(O)O)[C@@H](O)[C@H]2O)c(=O)[nH]1 [guanosine 5′-monophosphate]",
    "Experimental Result": "positive"
  },
  {
    "Compound": "O=C[C@@H](O)[C@@H](O)[C@H](O)[C@H](O)COP(=O)(O)O [mannose 6-phosphate]",
    "Experimental Result": "positive"
  },
  {
    "Compound": "N[C@H](Cc1ccc(OP(=O)(O)O)cc1)C(=O)O",
    "Experimental Result": "positive"
  }
]

Qu. Which value of suitability as phosphorus source (growth, purple color) has been reported for O=P(O)(O)OP(=O)(O)O [pyrophosphate] in the records?
Ans. not suitable

Qu. Which value of suitability as phosphorus source (growth, purple color) has been reported for Nc1nc2c(ncn2[C@@H]2O[C@@H]3COP(=O)(O)O[C@H]3[C@H]2O)c(=O)[nH]1 [guanosine 3′:5′-cyclic monophosphate] in the records?
Ans. not suitable

Qu. Which value of suitability as phosphorus source (growth, purple color) has been reported for O=C(O)COP(=O)(O)O in the records?
Ans. positive

Qu. Which value of suitability as phosphorus source (growth, purple color) has been reported for Nc1ncnc2c1ncn2[C@@H]1O[C@H](COP(=O)(O)O)[C@@H](O)[C@H]1O [adenosine 5′-monophosphate] in the records?
Ans. not suitable

* * *

- System: E. coli strain 14444 (MG1655 xylA); further: key: '+' indicates that the organism tested was capable of utilizing the carbon source listed; '−' indicates that the organism tested was not capable of utilizing the carbon source listed; 'w' indicates weak positive reactions
- Format: cell-based
Measure Name: carbon source utilization

Record excerpt, results attached:
[
  {
    "Molecule": "NCCO",
    "Experimental Result": "−"
  },
  {
    "Molecule": "O=C1O[C@@H]([C@H](O)CO)[C@H](O)[C@H]1O",
    "Experimental Result": "+"
  },
  {
    "Molecule": "OC[C@H]1O[C@H](O[C@H]2O[C@H](CO)[C@@H](O)[C@H](O)[C@H]2O)[C@H](O)[C@@H](O)[C@@H]1O",
    "Experimental Result": "+"
  },
  {
    "Molecule": "O=C1O[C@H]([C@@H](O)CO)[C@@H](O)[C@@H]1O",
    "Experimental Result": "+"
  },
  {
    "Molecule": "N[C@@H](C(=O)O)[C@@H](O)[C@H](O)[C@H](O)CO",
    "Experimental Result": "−"
  }
]

Qu. Which value of carbon source utilization has been reported for O=C(O)Cc1ccc(O)cc1 [P-hydroxy phenylacetic acid] in the records?
Ans. −

Qu. Which value of carbon source utilization has been reported for C[C@H](O)C(=O)O in the records?
Ans. +

Qu. Which value of carbon source utilization has been reported for CC(O)CO (centres unmarked) in the records?
Ans. −

* * *

- Test system: E. coli MG1655
- Type: cell-based
Measure Name: suitability as phosphorus source (growth, purple color)

[
  {
    "Compound": "O=P(O)(O)CP(=O)(O)O [methylene diphosphonic acid]",
    "Tested System": "E. coli MG1655",
    "Experimental Result": "not suitable"
  },
  {
    "Compound": "O=P(O)(O)OP(=O)(O)OP(=O)(O)O [tripolyphosphate]",
    "Tested System": "E. coli MG1655",
    "Experimental Result": "not suitable"
  },
  {
    "Compound": "Nc1nc2c(ncn2[C@@H]2O[C@H](CO)[C@H]3OP(=O)(O)O[C@H]32)c(=O)[nH]1 [guanosine 2′:3′-cyclic monophosphate]",
    "Tested System": "E. coli MG1655",
    "Experimental Result": "positive"
  },
  {
    "Compound": "O=C(O)[C@H](O)[C@@H](O)[C@H](O)[C@H](O)COP(=O)(O)O [6-phosphogluconic acid]",
    "Tested System": "E. coli MG1655",
    "Experimental Result": "positive"
  },
  {
    "Compound": "O=P(O)(O)O[C@H]1[C@H](OP(=O)(O)O)[C@@H](OP(=O)(O)O)[C@H](OP(=O)(O)O)[C@@H](OP(=O)(O)O)[C@H]1OP(=O)(O)O [inositol hexaphosphate]",
    "Tested System": "E. coli MG1655",
    "Experimental Result": "not suitable"
  },
  {
    "Compound": "Nc1nc2c(ncn2[C@@H]2O[C@H](CO)[C@@H](OP(=O)(O)O)[C@H]2O)c(=O)[nH]1 [guanosine 3′-monophosphate]",
    "Tested System": "E. coli MG1655",
    "Experimental Result": "positive"
  }
]

As a next step, examine the compound that follows.
Qu. Which value of suitability as phosphorus source (growth, purple color) has been reported for N[C@H]1C(OP(=O)(O)O)O[C@H](CO)[C@@H](O)[C@@H]1O (stereo partly shown) [glucosamine 1-phosphate] in the records?
Ans. positive

* * *

- Tested on: S. typhimurium pyrCΔ73
- Format: cell-based, Salmonella typhimurium
Measure Name: growth stimulation by supplement (well color)

[
  {
    "Molecule": "O=c1ccn([C@@H]2O[C@H](CO)[C@@H](OP(=O)(O)O)[C@H]2O)c(=O)[nH]1 [uridine 3′-monophosphate]",
    "Experimental Result": "turned purple"
  },
  {
    "Molecule": "O=c1ccn([C@H]2C[C@H](O)[C@@H](CO)O2)c(=O)[nH]1",
    "Experimental Result": "turned purple"
  },
  {
    "Molecule": "Nc1cc[nH]c(=O)n1",
    "Experimental Result": "turned purple"
  }
]

* * *

- Tested on: E. coli 287 (ATCC #11775)
- Assay type: cell-based
Peptide text beside a SMILES is read from it.
Measure Name: carbon source utilization result

[
  {
    "Compound": "CCC(=O)O",
    "Measure Name": "carbon source utilization result",
    "Experimental Result": "positive"
  },
  {
    "Compound": "OC[C@@H](O)[C@@H](O)[C@H](O)[C@@H](O)CO",
    "Measure Name": "carbon source utilization result",
    "Experimental Result": "positive"
  },
  {
    "Compound": "NCCO",
    "Measure Name": "carbon source utilization result",
    "Experimental Result": "positive/negative"
  },
  {
    "Compound": "O=C(O)[C@H](O)[C@@H](O)[C@H](O)[C@H](O)CO",
    "Measure Name": "carbon source utilization result",
    "Experimental Result": "positive"
  },
  {
    "Compound": "OC[C@H]1O[C@H](OCC2O[C@@H](O)[C@H](O)[C@@H](O)[C@@H]2O)[C@H](O)[C@@H](O)[C@H]1O (stereo partly drawn)",
    "Measure Name": "carbon source utilization result",
    "Experimental Result": "positive"
  },
  {
    "Compound": "NCCc1ccccc1",
    "Measure Name": "carbon source utilization result",
    "Experimental Result": "positive/negative"
  }
]

Qu. Which value of carbon source utilization result has been reported for O=C[C@H](O)[C@@H](O)[C@@H](O)[C@H](O)C(=O)O in the records?
Ans. positive

Qu. Which value of carbon source utilization result has been reported for O=P(O)(O)O[C@H]1O[C@H](CO)[C@@H](O)[C@H](O)[C@H]1O [Glucose-1-phosphate] in the records?
Ans. positive

Qu. Which value of carbon source utilization result has been reported for NCC(=O)N[C@@H](CCC(=O)O)C(=O)O [Glycyl-L-glutamic acid] (H-Gly-Glu-OH) in the records?
Ans. positive

* * *

- System: E. coli 287 (ATCC #11775)
- Format: cell-based
Peptide text beside a SMILES is read from it.
Measure Name: carbon source utilization result

Record excerpt, results attached:
[
  {
    "Compound": "O=C(O)CC(=O)O",
    "carbon source utilization result": "negative"
  },
  {
    "Compound": "C[C@@H](N)C(=O)O",
    "carbon source utilization result": "positive"
  },
  {
    "Compound": "C=C(CC(=O)O)C(=O)O",
    "carbon source utilization result": "negative"
  },
  {
    "Compound": "O=C(O)CC(Br)C(=O)O (centres unmarked)",
    "carbon source utilization result": "positive"
  },
  {
    "Compound": "OC[C@@H](O)[C@@H](O)[C@@H](O)CO",
    "carbon source utilization result": "negative"
  }
]

Qu. Which value of carbon source utilization result has been reported for O=C[C@H](O)[C@@H](O)[C@H](O[C@@H]1O[C@H](CO)[C@@H](O)[C@H](O)[C@H]1O)[C@H](O)CO in the records?
Ans. negative

Qu. Which value of carbon source utilization result has been reported for NC(=O)C[C@H](N)C(=O)O in the records?
Ans. positive

Qu. Which value of carbon source utilization result has been reported for O=C(O)CCCCCCCCC(=O)O in the records?
Ans. negative

Qu. Which value of carbon source utilization result has been reported for OC[C@H]1O[C@H](O[C@H]2[C@H](O)[C@@H](O)[C@H](O)O[C@@H]2CO)[C@H](O)[C@@H](O)[C@@H]1O in the records?
Ans. positive

Qu. Which value of carbon source utilization result has been reported for C[C@H](N)C(=O)NCC(=O)O [L-alanyl-glycine] (H-Ala-Gly-OH) in the records?
Ans. positive

Qu. Which value of carbon source utilization result has been reported for N[C@@H](CC(=O)O)C(=O)O in the records?
Ans. positive

Qu. Which value of carbon source utilization result has been reported for OC[C@H]1O[C@@H]2O[C@H]3[C@H](O)[C@@H](O)[C@@H](O[C@H]4[C@H](O)[C@@H](O)[C@@H](O[C@H]5[C@H](O)[C@@H](O)[C@@H](O[C@H]6[C@H](O)[C@@H](O)[C@@H](O[C@H]7[C@H](O)[C@@H](O)[C@@H](O[C@H]1[C@H](O)[C@H]2O)O[C@@H]7CO)O[C@@H]6CO)O[C@@H]5CO)O[C@@H]4CO)O[C@@H]3CO in the records?
Ans. negative

Qu. Which value of carbon source utilization result has been reported for O=C(O)Cc1ccc(O)cc1 [P-hydroxy phenylacetic acid] in the records?
Ans. negative
